// provenance: ChEMBL document CHEMBL4261508

- PROCEDURE_SUMMARY: Intrinsic clearance in human liver microsomes assessed as per mg protein at 1 uM after 1 hr in presence of NADPH-generating system by UPLC-MS/MS analysis
- Format: ADME, microsome
- MEASUREMENT_CONDITIONS: read-out: CLH
METRIC: microsomal CLint at 1 µM (µL/min/mg)
# unit: µL/min/mg | format: bare number

Incoming: Consider the compound Cn1nccc1-c1ncnc2c1cnn2CCN1CCCCC1 and give its measured microsomal CLint at 1 µM.
Outgoing: 2.4

###

- SYSTEM_UNDER_TEST: CYP2C19 (Homo sapiens)
- Sequence (P33261 whole entry): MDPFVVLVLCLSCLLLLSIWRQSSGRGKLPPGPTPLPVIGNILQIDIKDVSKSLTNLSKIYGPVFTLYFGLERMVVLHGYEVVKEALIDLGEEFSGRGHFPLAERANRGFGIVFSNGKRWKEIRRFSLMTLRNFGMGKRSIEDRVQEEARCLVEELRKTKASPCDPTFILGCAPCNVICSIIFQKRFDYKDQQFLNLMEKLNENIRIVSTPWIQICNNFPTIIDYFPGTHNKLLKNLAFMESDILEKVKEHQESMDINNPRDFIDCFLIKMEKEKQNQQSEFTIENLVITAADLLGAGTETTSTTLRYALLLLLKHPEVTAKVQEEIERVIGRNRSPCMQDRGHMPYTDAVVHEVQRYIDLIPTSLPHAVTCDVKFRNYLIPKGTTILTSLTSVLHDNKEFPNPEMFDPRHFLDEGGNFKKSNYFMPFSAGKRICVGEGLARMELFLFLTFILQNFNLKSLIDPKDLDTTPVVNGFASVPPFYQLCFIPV
- PROCEDURE_SUMMARY: Inhibition of recombinant human CYP2C19 at 1 uM relative to control
- Format: ADME
METRIC: inhibition at 1 µM

Incoming: Consider the compound Cn1nccc1-c1ncnc2c1cnn2CCN1CCCCC1 and give its measured inhibition at 1 µM.
Outgoing: < 50%

###

- SYSTEM_UNDER_TEST: UniProt:P05177
- Sequence (P05177 whole entry): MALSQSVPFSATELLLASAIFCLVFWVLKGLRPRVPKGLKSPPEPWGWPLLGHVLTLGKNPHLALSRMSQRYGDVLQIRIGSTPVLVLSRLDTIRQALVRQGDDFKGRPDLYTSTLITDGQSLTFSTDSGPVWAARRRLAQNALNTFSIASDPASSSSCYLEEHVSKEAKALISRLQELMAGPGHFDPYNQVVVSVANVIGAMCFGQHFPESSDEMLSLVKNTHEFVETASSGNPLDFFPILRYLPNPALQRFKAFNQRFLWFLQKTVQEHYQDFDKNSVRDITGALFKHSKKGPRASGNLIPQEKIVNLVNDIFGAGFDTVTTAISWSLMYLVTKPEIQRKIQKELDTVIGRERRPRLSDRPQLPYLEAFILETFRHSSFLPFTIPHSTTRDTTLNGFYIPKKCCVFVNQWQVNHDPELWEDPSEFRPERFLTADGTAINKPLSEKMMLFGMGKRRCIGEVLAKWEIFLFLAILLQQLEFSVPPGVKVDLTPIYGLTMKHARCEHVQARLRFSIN
- PROCEDURE_SUMMARY: Inhibition of recombinant human CYP1A2 at 1 uM relative to control
- Type: ADME
METRIC: inhibition at 1 µM

Incoming: Consider the molecule Cn1nccc1-c1ncnc2c1cnn2CCN1CCCCC1 and give its measured inhibition at 1 µM.
Outgoing: < 50%

###

- PROCEDURE_SUMMARY: Stability of the compound assessed as drug degradation at pH 7.4
- Assay type: physicochemical
- MEASUREMENT_CONDITIONS: buffer
METRIC: Stability

| SMILES_DATA | Stability |
| --- | --- |
| Clc1ccc(-c2ncnc3c2cnn3CCN2CCCCC2)s1 | Stable |
| Cc1cccc(-c2ncnc3c2cnn3CCN2CCCCC2)c1 | Stable |
| Cn1nccc1-c1ncnc2c1cnn2CCN1CCCCC1 | Stable |
| Clc1ccc(-c2ncnc3c2cnn3CCN2CCCCC2)cc1 | Stable |

Incoming: Consider the molecule COc1cc(F)ccc1-c1ncnc2c1cnn2CCN1CCCCC1 and give its measured Stability.
Outgoing: Stable

Incoming: Consider the molecule Cc1cc(F)ccc1-c1ncnc2c1cnn2CCN1CCCCC1 and give its measured Stability.
Outgoing: Stable

###

- SYSTEM_UNDER_TEST: UniProtKB P08684
- Sequence (P08684 whole entry): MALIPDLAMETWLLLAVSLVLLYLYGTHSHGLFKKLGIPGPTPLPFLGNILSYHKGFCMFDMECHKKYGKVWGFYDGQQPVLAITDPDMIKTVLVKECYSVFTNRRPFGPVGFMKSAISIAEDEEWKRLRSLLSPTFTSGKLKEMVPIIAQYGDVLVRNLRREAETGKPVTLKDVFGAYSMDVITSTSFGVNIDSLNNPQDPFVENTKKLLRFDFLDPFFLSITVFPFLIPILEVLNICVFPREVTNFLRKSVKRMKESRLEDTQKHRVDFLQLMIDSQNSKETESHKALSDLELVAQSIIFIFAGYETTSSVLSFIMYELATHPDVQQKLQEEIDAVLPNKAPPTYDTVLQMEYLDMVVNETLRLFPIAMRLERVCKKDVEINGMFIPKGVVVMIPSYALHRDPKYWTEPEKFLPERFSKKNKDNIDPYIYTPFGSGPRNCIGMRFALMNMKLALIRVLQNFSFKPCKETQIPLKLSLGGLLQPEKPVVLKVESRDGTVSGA
- PROCEDURE_SUMMARY: Inhibition of recombinant human CYP3A4 at 1 uM relative to control
- Type: ADME
METRIC: inhibition at 1 µM

Incoming: UniProtKB P08684 / inhibition at 1 µM / Cn1nccc1-c1ncnc2c1cnn2CCN1CCCCC1 : value?
Outgoing: < 50%

###

- SYSTEM_UNDER_TEST: Sigma non-opioid intracellular receptor 1 (Homo sapiens, UniProt Q99720)
- Sequence (Q99720 whole entry): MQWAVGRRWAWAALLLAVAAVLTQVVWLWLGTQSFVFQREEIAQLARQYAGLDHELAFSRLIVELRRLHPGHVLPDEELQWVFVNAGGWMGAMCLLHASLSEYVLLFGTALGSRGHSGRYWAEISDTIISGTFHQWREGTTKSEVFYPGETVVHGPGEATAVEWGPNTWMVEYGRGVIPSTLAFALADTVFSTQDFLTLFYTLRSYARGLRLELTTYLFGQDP
- PROCEDURE_SUMMARY: Displacement of [3H]-(+)-pentazocine from recombinant human sigma1 receptor expressed in HEK293 cell membranes after 120 mins by microbeta scintillation counting method
pKi: −log10 of the molar value.
Decision: pKi >= 7 yields MET, all other cases yield NOT MET.

Solved cases below.
| MOLECULE | CAT |
| --- | --- |
| Cn1cc(-c2ncnc3c2cnn3CCN2CCCCC2)cn1 | NOT MET |
| c1cn(-c2ncnc3c2cnn3CCN2CCCCC2)cn1 | NOT MET |
| CC(C)n1cc(-c2ncnc3c2cnn3CCN2CCCCC2)cn1 | NOT MET |
| Fc1ccc(-c2ncnc3c2cnn3CCN2CCCCC2)cc1C(F)(F)F | MET |
| c1csc(-c2ncnc3c2cnn3CCN2CCCCC2)n1 | NOT MET |
| Cc1cc(F)ccc1-c1ncnc2c1cnn2CCN1CCCCC1 | MET |

Incoming: Reported pKi reaches at least 7 for Clc1ccc(-c2ncnc3c2cnn3CCN2CCCCC2)s1 ?
Outgoing: MET

Incoming: Reported pKi reaches at least 7 for c1ccc(-c2ncnc3c2cnn3CCN2CCCCC2)nc1 ?
Outgoing: NOT MET

Incoming: Reported pKi reaches at least 7 for c1cncc(-c2ncnc3c2cnn3CCN2CCCCC2)c1 ?
Outgoing: NOT MET

Incoming: Reported pKi reaches at least 7 for Cc1ccc(Cl)c(-c2ncnc3c2cnn3CCN2CCCCC2)c1 ?
Outgoing: MET

Incoming: Reported pKi reaches at least 7 for Cc1ccc(C)n1-c1ncnc2c1cnn2CCN1CCCCC1 ?
Outgoing: NOT MET

Incoming: Reported pKi reaches at least 7 for c1nc(-c2cn[nH]c2)c2cnn(CCN3CCCCC3)c2n1 ?
Outgoing: NOT MET

Incoming: Reported pKi reaches at least 7 for Cc1ncccc1-c1ncnc2c1cnn2CCN1CCCCC1 ?
Outgoing: NOT MET

Incoming: Reported pKi reaches at least 7 for c1ccc(C2CCN(c3ncnc4c3cnn4CCN3CCCCC3)C2)cc1 (stereo not drawn) ?
Outgoing: NOT MET

Incoming: Reported pKi reaches at least 7 for COc1ccc(-c2ncnc3c2cnn3CCN2CCCCC2)cc1 ?
Outgoing: NOT MET

Incoming: Reported pKi reaches at least 7 for Cn1cncc1-c1ncnc2c1cnn2CCN1CCCCC1 ?
Outgoing: NOT MET

Incoming: Reported pKi reaches at least 7 for Cc1ccncc1-c1ncnc2c1cnn2CCN1CCCCC1 ?
Outgoing: NOT MET

Incoming: Reported pKi reaches at least 7 for Cn1cccc1-c1ncnc2c1cnn2CCN1CCCCC1 ?
Outgoing: MET

Incoming: Reported pKi reaches at least 7 for CC1(C)CCN(c2ncnc3c2cnn3CCN2CCCCC2)C1 ?
Outgoing: NOT MET

Incoming: Reported pKi reaches at least 7 for COc1cc(F)ccc1-c1ncnc2c1cnn2CCN1CCCCC1 ?
Outgoing: MET

Incoming: Reported pKi reaches at least 7 for c1nc(-c2cnsc2)c2cnn(CCN3CCCCC3)c2n1 ?
Outgoing: NOT MET

Incoming: Reported pKi reaches at least 7 for O=C1CCCN1c1ncnc2c1cnn2CCN1CCCCC1 ?
Outgoing: NOT MET

Incoming: Reported pKi reaches at least 7 for c1coc(-c2ncnc3c2cnn3CCN2CCCCC2)n1 ?
Outgoing: NOT MET

Incoming: Reported pKi reaches at least 7 for CCOc1ccccc1-c1ncnc2c1cnn2CCN1CCCCC1 ?
Outgoing: NOT MET

Incoming: Reported pKi reaches at least 7 for Cc1cccc(-c2ncnc3c2cnn3CCN2CCCCC2)n1 ?
Outgoing: NOT MET

Incoming: Reported pKi reaches at least 7 for c1nc(N2CCCCC2)c2cnn(CCN3CCCCC3)c2n1 ?
Outgoing: NOT MET

Incoming: Reported pKi reaches at least 7 for Cc1cncc(-c2ncnc3c2cnn3CCN2CCCCC2)c1 ?
Outgoing: NOT MET

Incoming: Reported pKi reaches at least 7 for N#Cc1ccc(-c2ncnc3c2cnn3CCN2CCCCC2)cc1 ?
Outgoing: NOT MET

###

- PROCEDURE_SUMMARY: Thermodynamic solubility of the compound in pH 7.4 phosphate buffer
- Format: physicochemical
- MEASUREMENT_CONDITIONS: read-out: Therm_solubility
METRIC: solubility thermodynamic (µg/mL)
# unit: µg/mL | format: bare number

Incoming: Consider the molecule Cn1nccc1-c1ncnc2c1cnn2CCN1CCCCC1 and give its measured solubility thermodynamic.
Outgoing: 1500

###

- SYSTEM_UNDER_TEST: UniProtKB P11712
- Sequence (P11712 whole entry): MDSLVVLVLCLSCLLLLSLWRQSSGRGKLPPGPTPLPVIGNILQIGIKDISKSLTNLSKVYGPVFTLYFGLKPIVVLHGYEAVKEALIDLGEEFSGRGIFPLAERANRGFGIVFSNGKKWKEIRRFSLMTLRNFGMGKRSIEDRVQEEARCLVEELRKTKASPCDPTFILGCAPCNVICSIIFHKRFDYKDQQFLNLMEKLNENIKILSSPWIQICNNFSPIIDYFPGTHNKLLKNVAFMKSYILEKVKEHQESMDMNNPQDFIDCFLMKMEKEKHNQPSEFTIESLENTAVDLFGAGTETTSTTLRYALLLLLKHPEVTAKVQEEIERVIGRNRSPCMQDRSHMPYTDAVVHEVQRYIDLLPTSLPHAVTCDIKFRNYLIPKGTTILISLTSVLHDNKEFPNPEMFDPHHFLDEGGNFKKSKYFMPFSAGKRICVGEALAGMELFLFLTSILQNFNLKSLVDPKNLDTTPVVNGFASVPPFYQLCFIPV
- PROCEDURE_SUMMARY: Inhibition of recombinant human CYP2C9 at 1 uM relative to control
- Type: ADME
METRIC: inhibition at 1 µM

Incoming: Consider the molecule Cn1nccc1-c1ncnc2c1cnn2CCN1CCCCC1 and give its measured inhibition at 1 µM.
Outgoing: < 50%

###

- PROCEDURE_SUMMARY: Thermodynamic solubility of the compound in pH 2 phosphate buffer
- Type: physicochemical
- MEASUREMENT_CONDITIONS: read-out: Therm_solubility
METRIC: solubility thermodynamic (µg/mL)
# unit: µg/mL | format: bare number

Incoming: Consider the compound Cn1nccc1-c1ncnc2c1cnn2CCN1CCCCC1 and give its measured solubility thermodynamic.
Outgoing: 2400

###

- Species on record: Cavia porcellus
- PROCEDURE_SUMMARY: Displacement of [3H]-DTG from sigma2 receptor in guinea pig brain membranes at 1 uM after 120 mins in presence of sigma1 […] (+)-SKF10047 by microbeta scintillation counting method relative to control
- Type: cell membranes
- MEASUREMENT_CONDITIONS: Membrane
Quick reference for inhibition among some compounds
# unit: % | format: bare number

Some compounds with recorded inhibition:
| COMPOUND | METRIC | MEASURE_UNIT | RECORDED_RESULT |
| --- | --- | --- | --- |
| Cc1ccc(C)c(-c2ncnc3c2cnn3CCN2CCCCC2)c1 | inhibition | % | 89 |
| COc1ccc(-c2ncnc3c2cnn3CCN2CCCCC2)cc1 | inhibition | % | 58 |
| c1ccc2c(c1)ncn2-c1ncnc2c1cnn2CCN1CCCCC1 | inhibition | % | 66 |
| Fc1ccc(-c2ncnc3c2cnn3CCN2CCCCC2)c(F)c1 | inhibition | % | 83 |
| Clc1ccc(-c2ncnc3c2cnn3CCN2CCCCC2)cc1 | inhibition | % | 74 |

Incoming: Consider the compound N#Cc1ccc(-c2ncnc3c2cnn3CCN2CCCCC2)cc1 and give its measured inhibition.
Outgoing: 47

Incoming: Consider the compound c1nc(N2CCCCC2)c2cnn(CCN3CCCCC3)c2n1 and give its measured inhibition.
Outgoing: 67

Incoming: Consider the compound Fc1cc(Cl)ccc1-c1ncnc2c1cnn2CCN1CCCCC1 and give its measured inhibition.
Outgoing: 73

Incoming: Consider the compound Fc1ccc(-c2ncnc3c2cnn3CCN2CCCCC2)cc1 and give its measured inhibition.
Outgoing: 75
